# TARGET_OR_SYSTEM: Adrenergic β2 (Homo sapiens, UniProt P07550)
# Construct: Adherent H292 cells were removed from tissue culture flasks; endogenous in cells; host or cells: H292 cells
# Sequence (P07550 whole entry): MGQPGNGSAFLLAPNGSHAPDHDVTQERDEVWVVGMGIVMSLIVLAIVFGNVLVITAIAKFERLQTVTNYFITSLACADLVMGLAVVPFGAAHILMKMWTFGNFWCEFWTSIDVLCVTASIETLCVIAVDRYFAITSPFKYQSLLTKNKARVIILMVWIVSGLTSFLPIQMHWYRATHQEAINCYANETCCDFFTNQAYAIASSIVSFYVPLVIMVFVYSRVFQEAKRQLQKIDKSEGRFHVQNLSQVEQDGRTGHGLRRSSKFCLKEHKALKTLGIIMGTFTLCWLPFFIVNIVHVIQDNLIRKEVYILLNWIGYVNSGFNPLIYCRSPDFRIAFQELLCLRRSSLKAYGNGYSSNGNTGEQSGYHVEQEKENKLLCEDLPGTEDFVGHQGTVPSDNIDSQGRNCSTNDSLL
# ASSAY_METHOD_TEXT: Adrenergic β2 mediated cAMP production in H292 cells
# Type: cell-based
# RUN_PARAMETERS: H292 cells, cAMP by AlphaScreen, 60 minutes at room temperature, rolipram 300 μM; read-out: β2 pEC50 (converted)
Structures can show the parent of a compound that is named as a salt.
Exercise: state measured EC50 for each of the compounds provided.
One number for each entry, in nM.

>>> print(df.to_string())
                                   compound                          target_or_system  experimental_readout  units_label  reported_result
0  O=C(CCNCCc1ccc(Cl)s1)N(CCNCCc1ccc(O)c2[nH]c(=O)sc12)C1CCCCC1 [Example 72, bis-trifluoroacetic acid salt]  Adrenergic β2 (Homo sapiens, UniProt P07550)                  EC50           nM             3.98

Go through the list and state EC50 for each entry.
1. O=C(CCNCCc1cccc(O)c1)N(CCNCCc1ccc(O)c2[nH]c(=O)sc12)C1CCCCCC1 [Example 37, bis-trifluoroacetic acid salt]
2. O=C(CCNCCc1ccccc1)N(CCNCCc1ccc(O)c2[nH]c(=O)sc12)CC12CC3CC(CC(C3)C1)C2 [Example 59, bis-trifluoroacetic acid salt]
3. O=C(CCNC[C@@H](O)c1ccccc1)N(CCNCCc1ccc(O)c2[nH]c(=O)sc12)C1CCCCC1 [Example 74, bis-trifluoroacetic acid salt]
4. O=C(CCNCCc1ccccc1Cl)N(CCNCCc1ccc(O)c2[nH]c(=O)sc12)C1CCC(F)(F)CC1 [Example 46, bis-trifluoroacetic acid salt]
5. Cc1cccc(CCNCCC(=O)N(CCNCCc2ccc(O)c3[nH]c(=O)sc23)C2CCOCC2)c1 [Example 25, bis-trifluoroacetic acid salt]

[1, 5.01, 12.6, 3.16, 7.94]

----------
For each entry below, report its IC50 value.
# TARGET_OR_SYSTEM: recombinant human adrenergic beta 1 receptors (Homo sapiens)
# Construct: purchased Euroscreen
# Sequence (P08588 whole entry): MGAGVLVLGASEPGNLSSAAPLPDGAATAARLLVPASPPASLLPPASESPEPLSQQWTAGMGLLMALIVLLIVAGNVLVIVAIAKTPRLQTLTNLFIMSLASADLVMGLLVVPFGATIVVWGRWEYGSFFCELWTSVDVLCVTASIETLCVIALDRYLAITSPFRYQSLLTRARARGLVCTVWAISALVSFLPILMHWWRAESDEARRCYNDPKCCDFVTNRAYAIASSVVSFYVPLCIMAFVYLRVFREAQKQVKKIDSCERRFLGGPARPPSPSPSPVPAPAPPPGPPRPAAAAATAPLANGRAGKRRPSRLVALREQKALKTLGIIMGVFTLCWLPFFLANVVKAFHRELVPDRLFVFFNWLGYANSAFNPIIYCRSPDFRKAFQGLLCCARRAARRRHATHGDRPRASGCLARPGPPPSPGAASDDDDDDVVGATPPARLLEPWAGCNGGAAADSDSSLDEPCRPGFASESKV
# ASSAY_METHOD_TEXT: Adrenergic β1 selectivity binding assay ([125I]-Iodocyanopindolol)
# RUN_PARAMETERS: inhibition of [125I]-Iodocyanopindolol (0.036 nM) binding; read-out: β1 bind p IC50 (converted)
# Description: Membranes containing recombinant human adrenergic beta 1 receptors were obtained from Euroscreen. […] Assays were performed in U-bottomed 96-well polypropylene plates. […] Five washes with 250 μL wash buffer (50 mM HEPES, 1 mM EDTA, 120 mM NaCl, pH 7.4) were performed at 4° C. to remove unbound radioactivity. […] The plates were sealed (TopSeal A) and filter-bound radioactivity was measured with a scintillation counter (TopCount, Packard BioScience) using a 3-minute counting protocol. […]
Where a name gives a salt, the structure may show the parent alone.
One number for each entry, in nM.

Illustrative cases are given below, each with its answer.
                                   molecule  reported_result
0  O=C(CCNCCc1cc(F)ccc1F)N(CCNCCc1ccc(O)c2[nH]c(=O)sc12)C1CCCCCC1 [Example 83, bis-trifluoroacetic acid salt]             5010
1  O=C(CCNCCc1ccc(O)c(Cl)c1)N(CCNCCc1ccc(O)c2[nH]c(=O)sc12)C1CCCCC1 [Example 89, bis-trifluoroacetic acid salt]             3160
2  C[C@H](CNCCC(=O)N(CCNCCc1ccc(O)c2[nH]c(=O)sc12)C1CCCC1)c1ccccc1 [Example 31, bis-trifluoroacetic acid salt]             6310
3  O=C(CCNCCc1ccc2c(c1)OCCO2)N(CCNCCc1ccc(O)c2[nH]c(=O)sc12)C1CCCCCC1 [Example 88, bis-trifluoroacetic acid salt]             6310

Okay, here is my list. What is IC50 for each of these?
1. CC(C)(C)CN(CCNCCc1ccc(O)c2[nH]c(=O)sc12)C(=O)CCNCCc1ccc(Cl)c(Cl)c1 [Example 9, bis-trifluoroacetic acid salt]
2. O=C(CCNCCc1cccs1)N(CCNCCc1ccc(O)c2[nH]c(=O)sc12)C1CCCCCC1 [Example 52, bis-trifluoroacetic acid salt]

5010
1580
